Consider the following molecules; for each one, report its Growth Rate.
System: U2OS
assayExplanation: Incucyte cell viability with U2OS; note: unitless GR value; below 1 slowed growth and below 0 cell loss
Type: toxicity, cell-based
measurementContext: human, 0 h, 10 µM, compound concentration 10 uM, replicate number 2, timepoint 0 hours
Answers are plain numbers.

Before answering, review these 2 worked examples.
Br.Br.N=C(N)NCCSC(=N)N	0.56
CSc1ccccc1N1CCN(CCCCCC(=O)NC2CCCc3ccccc32)CC1.Cl (stereo not drawn)	0.92

Growth Rate for "COc1cc(C(=O)N2CC[C@@H](O)[C@@H](N)C2)cc2nc(-c3cc4ccccc4n3CC3CC3)n(C)c12.Cl" ?
0.15

---

For each record, write down the corresponding Growth Rate.
Tested on: Fibroblast
assayExplanation: Incucyte cell viability with human fibroblast; note: unitless GR value; below 1 slowed growth and below 0 cell loss
Format: toxicity, cell-based
measurementContext: 0 h, 10 µM, compound concentration 10 uM, replicate number 1, timepoint 0 hours

CCC(=O)NCC[C@@H]1CCc2ccc3c(c21)CCO3 [RAMELTEON]	0.51
COCCN1CCC(c2cc(CN(C)C(=O)c3cccc(Oc4ccccc4)c3)ccn2)CC1	0.94
Nc1cnc(N2CCc3cc(S(=O)(=O)Nc4c(F)cc(Cl)cc4F)cc(N4CCCC4=O)c32)nc1 [TP-020n]	0.01
CCCCCC(O)/C=C/[C@H]1C(=O)CC(O)C1C/C=C\CCCC(=O)O (stereo not given in full)	0.39

Below: the item to evaluate.
Recorded Growth Rate of "COCCn1c(C)c(C)s/c1=N\C(=O)C1C(C)(C)C1(C)C" , please.
0.65
